test.details: Gal4-VP16 luciferase reporter inhibitors, counter-screen for COUP-TFII antagonist project, cell-based, luminescence, HEK293 (AID 687007)
details: at 8.5 µM
The other results are listed elsewhere or left out. Activity calls are given as the source filed them. Rule as the data show it: active = inhibition above about 13%; inactive = the rest.
Possible outcomes: active, inactive

- compound: "CCN(CC)S(=O)(=O)c1ccc(N(C)Cc2ccc(C(F)(F)F)cc2)nc1"
  discrete.label: "inactive"
- compound: "Cn1nccc1C(=O)NC1CCCc2c1cnn2-c1ccccc1F (stereo not given)"
  discrete.label: "inactive"
- compound: "CCOC(=O)C1=C(c2ccc(OC)cc2)C(=O)c2ccccc2C1=O"
  discrete.label: "active"
- compound: "Cc1ccc(C)c(N2CCN(C(=O)CCCCCn3c(=S)[nH]c4ccc(N5CCOCC5)cc4c3=O)CC2)c1"
  discrete.label: "active"
- compound: "OC[C@@H]1CN(Cc2ccc(-c3ccccc3)cc2)C[C@H](n2cnc3c(NC4CCCC4)ncnc32)O1"
  discrete.label: "inactive"
- compound: "CCOC(=O)c1ccc(NC(=O)Cn2cnc3cc(C)c(C)cc32)cc1"
  discrete.label: "inactive"
- compound: "CCn1c(CNC(=O)c2cc(OC)c(OC)c(OC)c2)cc2cc(C)ccc21"
  discrete.label: "inactive"
- compound: "C=CCC1(CC=C)CCCN1C(=O)c1cc(COc2ccc(-n3cncn3)cc2)on1"
  discrete.label: "inactive"
- compound: "COc1cc(/C=C/C(=O)n2cnc3ccccc32)cc(OC)c1OC"
  discrete.label: "inactive"
- compound: "Cc1ccc2nc(-c3ccc(Br)cc3)cn2c1"
  discrete.label: "inactive"
- compound: "COc1ccc(CNc2ncnc3ccccc23)cc1"
  discrete.label: "inactive"
- compound: "C[C@H]1CCC/C=C/C(=O)c2c(O)cc(O)cc2CC(=O)O1"
  discrete.label: "active"
- compound: "Fc1ccc2[nH]c3c(N4CCSCC4)ncnc3c2c1"
  discrete.label: "inactive"
- compound: "Cc1ccc(-n2nc3c(=O)n(C(C)C(=O)NCc4ccc5c(c4)OCO5)nc(C)c3c2C)cc1 (stereo not given)"
  discrete.label: "inactive"
- compound: "Cc1ccc(-c2nc(CSCC(=O)NC3CCN(Cc4ccccc4)CC3)c(C)o2)cc1"
  discrete.label: "inactive"
- compound: "CCCc1ccc(-c2csc(NC(=O)Cc3cccs3)n2)cc1"
  discrete.label: "inactive"
- compound: "CC(=O)Nc1ccc(-c2csc(NC(=O)Nc3ccccc3)n2)cc1"
  discrete.label: "inactive"
- compound: "COc1ccc2c(c1)c(=Cc1ccc(N(C)C)cc1)c1cc(-c3ccccc3)[n+](C)n12"
  discrete.label: "active"
- compound: "NS(=O)(=O)c1ccc(CCNc2nc(C(F)(F)F)nc3ccccc23)cc1"
  discrete.label: "inactive"
- compound: "CN(C(=O)CN1CCN(c2cc(-c3ccc(OCc4ccccc4)cc3)ncn2)CC1)c1ccccc1"
  discrete.label: "inactive"
